Source listed as the supplement of paper PMC9170038.

- Test system: MS2 coat protein
- Test Details: apparent KD of MS2 coat protein; higher = weaker reporter binding
- Protocol Conditions: Eterna round: R107; input ligand: theophylline 2 mM
Kindly state apparent KD of MS2 coat protein for each of the entries shown.
In your response, the unit should come after the numeric value.

# count of solved cases: 5
* UAUCCACAUGAGGAUCACCCAUGUAGGGAAGGAGCGGUGGAUGCACCAGGUAGGUCGCCUUGCUGAGGACAGCCGGUGGAUUCGU [Exclusion - Arginine A (Freestyle 27)] | 46.7 nM
* CGUAUGUAGACGGCCGCCACUGGAACAAGAGGAUCACCCUUGUACAGGGUGGGACUAUCGAGAGUCAGGACCGGGUCUACAUACA [Tryp B Ex t2] | 140 nM
* UUAUGCAGGUCGGCCGCCACUACACACAUGAGGAUCACCCAUGUAGUUACUGGGUGAAGUGGCAGUAGGACCGGGACCUGCACAU [Brourdmod13] | 850 nM
* UCACAUGAGGAUCACCCAUGUCAUGUUGAAGGAGCGACCAGGAGGUCAGGUAGGUCGCAACACAUGAGGAUCACCCAUGUGGCCC [Qetesh] | 159 nM
* GACGGCUCGACGGCCGCCACUCCCUCCGACUGAAGGCACAGUGGACAUGAGGAUCACCCAUGUCCGAGGACCGGGUCGAUCCUGG [theeternabot_sameState_MS2_Trp_B_32] | 18.3 nM

Could I get apparent KD of MS2 coat protein for every one of these entries?
1. GGAGUAGGAAACUAUUCCAAUCCUCGUGAACGAGGACCGGUACGGCCGCCACUCGAUAAAUAAAUACAUGAGGAUCACCCAUGUU [Ex Tryptophan A 23]
2. UAUCGUCAGACGGCCGCCACUAGAACAUGAGGAUCACCCAUGUAGGCGGCCGAUUCCUCAUUAACUAGGACCGGGUCUGACGAAU [(Trp1)-(Ms2)-(T)'-(M)'-(Trp2)_Design11]

Output:
["82.1 nM", "9.76 nM"]

* * *

- Tested on: K4 kissing-loop RNA reporter
- Test Details: apparent KD of K4 kissing-loop reporter; higher = weaker reporter binding
- Protocol Conditions: Eterna round: R107; input ligand: FMN 200 uM
Kindly state apparent KD of K4 kissing-loop reporter for each of the entries shown.

# count of solved cases: 2
* UUUAUUAAGACGGCCGCCACUGAUUCAUAGUGAUGUUAUGAUAUAAUCUUAGUGAUAUUUAUAAACAGGACCGGGUCAAUUAUUA [JR_SSTryptoB_Sub026] | 221 nM
* AAAGCAUUGAGAAGGAGCGUGUCGUGGAGUGAUGUUCCAUUGUAGACCUAAGGUCUACAAGCACAGGUAGGUCGCUCAUUGCUAA [JR_Nu_SSArginiB_Sub023] | 169 nM

Could I get apparent KD of K4 kissing-loop reporter for every one of these entries?
1. CGGAGUGAUGUUCCUUUUAUUAAUUAUUUACGAGGACCGGUACGGCCGCCACUCGAUUUAGCUUUUAUUUAAUGCUUGGAUGUUU [JR_SSTryptoA_Sub004]
2. AACUGUCAAGGACAACAUUACUGAGGUGAUACCAGCAUCGAAAGAUGCCCUUGGCAGCACCGACUUGCAGUGAUGUUGCAAGUAA [BrourdMod 11 - Jieux - Exclusion - Theophylline A]
3. UGACUUGCCUGAGGAUAUCUAGGAUAUGGAUAAAAUAAAAUAAUAAUGGAGUGAUGUUCCAGAAGGAGAGAAGGCAGGUAAGUCU [KL-XFMN-B16 #DoubleAptamer #SwitchBubble]
4. CGGCGGAGUGAUGUUCUGCUCGCUCCGGAUACCAGCUUCGCCAGAGGCCCUUGGCAGCCGGGCGGCCCAGUGAUGUUGGGUUGCG [Same State Theophylline A GF 17]
5. AGCUAGUACGCAGGAUAUUGAACAUCAUUUAGUGAGAUCGAGUGAUGUUCGAUCACGACUUCAGUUCGAGAAGGGCGUACUAGCA [#02 K4 FMN B Same State]
6. AGUAGAGCAUCAGAUACCAGACAGAACUGAUGGUAAGGAGUGAUGUUCCUUAAUCAGCUUGUCCCUUGGCAGCUGAUAAUAGUCA [#13 K4 Theophylline B Same State]
7. AGACUACCACACUGUCAAUAGACAGUGGACUAGGAUAUGCUGAUAAGCAGAAGGAGUGAUGUUCCCAGGUAGUCAAUAAAAUAAU [FmnAX 13 G28+C66]
8. AACUCUCAGGCAGCCGAGUGAUGUUCGGCCCGAGGACCGGUACGGCCGCCACUCGGGCCUGAGAGAGGUUAUCAAAGAUAGCCAA [#01 K4 Tryptophan A Same State]

Output:
1: 130 nM; 2: 271 nM; 3: 190 nM; 4: 297 nM; 5: 160 nM; 6: 423 nM; 7: 215 nM; 8: 194 nM

* * *

- Tested on: MS2 coat protein
- Test Details: apparent KD of MS2 coat protein; designed switch direction (-1 OFF switch, 1 ON switch): -1; higher = weaker reporter binding
- Protocol Conditions: input ligand: FMN 200 uM
Kindly state apparent KD of MS2 coat protein for each of the entries shown.
Give bare numbers, in nM.

Could I get apparent KD of MS2 coat protein for every one of these entries?
1. UCUGCUUUAGGAUAUACGAGAUCCUGCGAUGUACUCUUCGGACAUGAGGAUCACCCAUGUAGAAGGAAAGCAGG [Eternabot (L2) Solution 20] (Eterna round: R97, puzzle: Exclusion 2)
2. UUUUUAUAUGAAGGAUAUACUUAACAUGAGGAUCACCCAUGUGGUGUUGUGAGUGAGUGAGUUUAGUAGAAGGUCAAGGAUUUU [JMF's solution 35] (Eterna round: R96, puzzle: Exclusion NG 2)
3. UGAUCACAUGAGGAUCACCCAUGUCAGGAUAUCUACAUUGAAGCUGCGGCUUCAAUGUAGAGAAGGGACAUAAU [E1/3-B3] (Eterna round: R97, puzzle: Exclusion 1)
4. ACAAGCUUUGUUGGGUGGUACAUGAGGAUCACCCAUGUUGCGCUCGUCUUGUGGGCCCGGGCCCGCGGCCCGGGCCC [-41.5, -69.6, A 12%] (Eterna round: R97, puzzle: Sensor, turn-off variant 1)
5. UUGGUUGUGGUAGGAUAUCCGUUGGAAACCGUUGGAGAAGGACCACAGUCACUGGGUCUUUGUUUGGUGGAGUGGAAGAACCAU [pwkr exNG1 F6.19] (Eterna round: R96, puzzle: Exclusion NG 1)
6. UAAGUUUACCGAGGAUAUGGUUUUUCCUUUUUACCAGAAGGCGGACUCAACAUGAGGAUCACCCAUGUAUAAAGGGUAUUUGGU [JR_ExcNG1_Sub045] (Eterna round: R96, puzzle: Exclusion NG 1)
7. ACAUGAGGAUCACCCAUGUAAUGAAGGGUACUAUAUUAAACGUAGGAUAUCGAUGUAAGUUUGUACGAGAAGGACGAUUGCCUU [JR_ExcNG3_Sub052] (Eterna round: R96, puzzle: Exclusion NG 3)

Output:
1. 96.4
2. 598
3. 117
4. 545
5. 1020
6. 57.8
7. 48.2

Could I get apparent KD of MS2 coat protein for every one of these entries?
1. GGUAGAGUGGUAGGAUAUCCGUCUGUUUCAGUCGGAGAAGGACCACAGUCACUGGGUCCUAAUAUGGGUGACCAUGUAUCUACC [pwkr exNG1 F6.11] (Eterna round: R96, puzzle: Exclusion NG 1)
2. GCAAGGGAAGGAUAUACAUUACGACCGUCAUAGUACCUGCGACAUGAGGAUCACCCAUGUAGAAGGUCCAGCGG [EX2 C.13] (Eterna round: R97, puzzle: Exclusion 2)

Output:
[1340, 17.4]

* * *

- Test system: K4 kissing-loop RNA reporter;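 also: bound reporter read as fluorescence of individual clusters on recovered sequencing chips by microscopy, with normalized cluster intensities fitted with a binding model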
- Test Details: apparent KD of K4 kissing-loop reporter; higher = weaker reporter binding
- Protocol Conditions: Eterna round: R107; input ligand: FMN 200 uM
Observation Type: apparent KD of K4 kissing-loop reporter (nM)
One number for each entry, in nM.

# count of solved cases: 2
* GCGAAGAGAGAAGGAUAUUAGUAAUGCGUCAUGCGCCCUUACCAGUUAGUGAUGUUAACAAUACAUUAAGAAGGUCUCGGAAUCC [theeternabot_sameState_KL_FMN_B_50] | 297
* GCUAGGAUGGCAGGAUAUAGUUCGUGAGUGAUGUUCAAAGAACUAAGAGGGACACCUCAUUCUAAACUAGAAGGGCCAUCCUAGC | 246

Could you now look at the following sequence, please?
Input: Name the recorded apparent KD of K4 kissing-loop reporter for CCAAUCAGUUACGAUACCAGUCUAAUAUAUUUGAUCAAAACCCUCGCCGAGUGAUGUUCGGACCCUUGGCAGCGUCUGGGACAGG [fcctmullin] .
Output: 502

* * *

- Tested on: MS2 coat protein
- Test Details: apparent KD of MS2 coat protein, switch ON state; designed switch direction (-1 OFF switch, 1 ON switch): 1; higher = weaker reporter binding
- Protocol Conditions: FMN input: 0 or 200 uM; Eterna round: R93 (includes R88 designs)
Observation Type: apparent KD of MS2 coat protein (nM)
Give bare numbers, in nM.

• AUAAAAUAAAAGGAGGAUAUCCUAAAUAAAACAUGAGGAUCACCCAUGUAAAAAAUAAUAAAAUGGGAGAAGGCCUAAAAUAAAU [SS2 M 25] = 16.9
• AGAAAACAUGAGGAUCACCCAUGUGAUAACAUGGGAGGAUAUACGAGGACGAUAGUCAAGGUAGAAGGCCUAAAGA [Garnet 71] = 97.3
• AAAACACAUGAGGAUCACCCAUGUAGAAAUAUGGGAGGAUAUACGAAAACGAAAGACAAAGUAGAAGGCCUAAAAG [saturn 4] = 41.6

Could I get apparent KD of MS2 coat protein for every one of these entries?
1. AAUAAAAAUAGUCAGGAUAUGAGAACUAAGACAUGAGGAUCACCCAUGUAAACAGAACAAGUAAAUCAGAAGGGACAGGGUGAAA [JR_SS002_Sub201]
2. CAGGGACAUGAGGAUCACCCAUGUGGGAUUAUGGGAGGAUAUACAAAGACGAGAGUCAGAGUAGAAGGCCUAGGAC [salish99-ss1-128]
3. AAGAAACAUGAGGAUCACCCAUGUAAUAAUAUGGGAGGAUAUACAAGGACGUAAGUCAAGGUAGAAGGCCUAAGAA [Mat - Same State 1 - Meechl mod - D141]

Output:
39.3
37.3
21
